Biological target: Factor X, P00742
Sequence (P00742 whole entry, looked up): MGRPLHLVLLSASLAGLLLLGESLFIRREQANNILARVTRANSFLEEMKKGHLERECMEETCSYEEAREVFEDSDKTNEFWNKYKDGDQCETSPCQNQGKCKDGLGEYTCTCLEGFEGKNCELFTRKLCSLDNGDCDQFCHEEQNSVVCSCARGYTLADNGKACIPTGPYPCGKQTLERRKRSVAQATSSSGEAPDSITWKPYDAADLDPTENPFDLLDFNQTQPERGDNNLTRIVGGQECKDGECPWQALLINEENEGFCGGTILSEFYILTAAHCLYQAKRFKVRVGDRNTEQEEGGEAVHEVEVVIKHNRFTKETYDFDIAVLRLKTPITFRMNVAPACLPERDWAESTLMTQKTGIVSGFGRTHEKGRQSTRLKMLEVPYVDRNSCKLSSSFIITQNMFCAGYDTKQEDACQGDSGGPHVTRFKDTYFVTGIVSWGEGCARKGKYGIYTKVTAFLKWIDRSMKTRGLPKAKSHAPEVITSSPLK
MEASURED_PROPERTY: KM (FX activation by FIXa in Xase complex with FVIIIa, PC/PS vesicles, Ca2+) (µM)
Kindly answer with a numeric value in µM, unit omitted.

The protein FIXa K247N/N249S/N260S/R318Y/R338E/R403E/E410N (protein) chain 1: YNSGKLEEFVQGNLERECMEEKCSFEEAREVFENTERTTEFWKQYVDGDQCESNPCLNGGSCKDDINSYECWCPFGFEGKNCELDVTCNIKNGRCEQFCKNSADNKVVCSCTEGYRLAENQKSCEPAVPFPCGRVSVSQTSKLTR chain 2: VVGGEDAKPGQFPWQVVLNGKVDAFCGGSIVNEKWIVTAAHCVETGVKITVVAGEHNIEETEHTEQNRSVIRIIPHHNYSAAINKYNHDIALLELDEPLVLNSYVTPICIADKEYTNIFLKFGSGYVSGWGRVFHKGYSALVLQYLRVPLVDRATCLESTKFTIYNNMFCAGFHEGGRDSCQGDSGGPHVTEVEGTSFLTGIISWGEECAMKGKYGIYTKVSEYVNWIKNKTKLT showed KM (FX activation by FIXa in Xase complex with FVIIIa, PC/PS vesicles, Ca2+) equal to 0.0474

// sample FIXa Y155F/K247N/N249S/R338E/R403E/E410N (protein) chain 1: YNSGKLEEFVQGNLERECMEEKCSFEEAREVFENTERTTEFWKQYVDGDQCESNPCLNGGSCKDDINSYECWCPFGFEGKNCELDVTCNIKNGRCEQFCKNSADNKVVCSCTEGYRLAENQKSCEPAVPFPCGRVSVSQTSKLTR chain 2: VVGGEDAKPGQFPWQVVLNGKVDAFCGGSIVNEKWIVTAAHCVETGVKITVVAGEHNIEETEHTEQNRSVIRIIPHHNYNAAINKYNHDIALLELDEPLVLNSYVTPICIADKEYTNIFLKFGSGYVSGWGRVFHKGRSALVLQYLRVPLVDRATCLESTKFTIYNNMFCAGFHEGGRDSCQGDSGGPHVTEVEGTSFLTGIISWGEECAMKGKYGIYTKVSEYVNWIKNKTKLT , its KM (FX activation by FIXa in Xase complex with FVIIIa, PC/PS vesicles, Ca2+) was 0.0487
